Attribution: patent US8546443B2

Recorded EC50 values for a group of compounds are listed next.
Tested on: TC-71 (Ewing's sarcoma) cells
Assay: Cell proliferation assay, TC-71 (Alamar Blue)
Type: cell-based
Settings: 72 h with compound, EC50 ranges as class symbols

{"columns": ["Compound", "EC50"],
 "data": [
  ["Cc1cc(C2CCCN(CCO)C2)ccc1Nc1ncc(C(F)(F)F)c(NCc2cccc3c2C(C)(C)C(=O)N3)n1 (racemic)", "< 50 nM"],
  ["CC1(C)C(=O)Nc2cccc(CNc3nc(Nc4ccc(C5CCCN(CCO)C5)cc4)ncc3Cl)c21 (racemic)", "50 to 250 nM"],
  ["Cc1cc(Nc2ncc(C(F)(F)F)c(NCc3cccc4c3C(C)(C)C(=O)N4)n2)ccc1C1CCN(CC(C)(C)O)CC1", "< 50 nM"],
  ["Cc1cc([C@H]2CCCN(CC(C)(C)O)C2)ccc1Nc1ncc(Br)c(NCc2cccc3c2C(C)(C)C(=O)N3)n1", "< 50 nM"],
  ["COc1cc(N2CCN(C)CC2)ccc1Nc1ncc(C(F)(F)F)c(NCc2cccc3c2C2(CC2)C(=O)N3)n1", "250 to 3000 nM"],
  ["Cc1cc(Nc2ncc(C(F)(F)F)c(NCc3cccc4c3C(C)(C)C(=O)N4)n2)c(F)cc1C1CCN(CC(C)(C)O)CC1", "50 to 250 nM"],
  ["Cc1cc(C2CCN(CCO)CC2)ccc1Nc1ncc(Cl)c(NCc2cccc3c2C(C)(C)C(=O)N3)n1", "50 to 250 nM"],
  ["CN1CCC(n2cc(Nc3ncc(Cl)c(NCc4cccc5c4C(C)(C)C(=O)N5)n3)cn2)CC1", "50 to 250 nM"],
  ["CNC(=O)CN1CCCC(c2ccc(Nc3ncc(Cl)c(NCc4cccc5c4C(C)(C)C(=O)N5)n3)cc2)C1 (racemic)", "50 to 250 nM"],
  ["COCCN1CCC(c2ccc(Nc3ncc(Cl)c(NCc4cccc5c4C(C)(C)C(=O)N5)n3)cc2)CC1", "50 to 250 nM"],
  ["CNC(=O)CN1CCCC(c2ccc(Nc3ncc(Br)c(NCc4cccc5c4C(C)(C)C(=O)N5)n3)c(C)c2)C1 (racemic)", "50 to 250 nM"],
  ["Cc1cc(C2CCN(CC(N)=O)CC2)ccc1Nc1ncc(Cl)c(NCc2cccc3c2C(C)(C)C(=O)N3)n1", "50 to 250 nM"],
  ["COCCN1CCC(c2ccc(Nc3ncc(Br)c(NCc4cccc5c4C(C)(C)C(=O)N5)n3)cc2)CC1", "50 to 250 nM"],
  ["Cc1c(Nc2ncc(C(F)(F)F)c(NCc3cccc4c3C(C)(C)C(=O)N4)n2)ccc(C2CCN(CC(C)(C)O)CC2)c1C", "< 50 nM"]
]}

* * *

Target: cytoplasmic kinase domain of human IGF-1R (IGF-1R-GST) (Homo sapiens, UniProt P08069)
Construct: cytoplasmic kinase domain of human IGF-1R (amino acids 964-1370); GST (glutathione-S-transferase)
Sequence (P08069 964-1367 limits assumed): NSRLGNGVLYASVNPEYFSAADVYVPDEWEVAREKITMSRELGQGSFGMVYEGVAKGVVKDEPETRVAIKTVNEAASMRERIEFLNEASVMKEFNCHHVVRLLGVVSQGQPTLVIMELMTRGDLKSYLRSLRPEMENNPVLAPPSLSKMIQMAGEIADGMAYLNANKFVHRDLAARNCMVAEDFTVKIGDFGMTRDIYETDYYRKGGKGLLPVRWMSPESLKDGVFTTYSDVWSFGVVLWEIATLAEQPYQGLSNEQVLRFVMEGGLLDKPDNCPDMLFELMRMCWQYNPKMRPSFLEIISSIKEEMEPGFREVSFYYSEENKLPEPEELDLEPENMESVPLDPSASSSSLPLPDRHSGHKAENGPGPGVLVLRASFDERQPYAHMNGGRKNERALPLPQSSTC
Test: Insulin-like growth factor-1 receptor (IGF-1R) kinase assay (DELFIA)
Conditions: IGF-1R-GST kinase activity, read-out: IGF1R IC50
Outcome measure: log10 IC50 (log10 of the value in nM)

{"columns": ["Molecule", "log10 IC50"],
 "data": [
  ["Cc1cc(N2CCN(CC(C)(C)O)CC2)ccc1Nc1ncc(C(F)(F)F)c(NCc2cccc3c2C(C)(C)C(=O)N3)n1", 0.30],
  ["CC1(C)C(=O)Nc2cccc(CNc3nc(Nc4ccc(C5CCCN(CCO)C5)cc4)ncc3Br)c21 (racemic)", -0.15],
  ["COc1cc(N2CCC(N3CCN(S(C)(=O)=O)CC3)CC2)ccc1Nc1ncc(C(F)(F)F)c(NCc2cccc3c2C(C)(C)C(=O)N3)n1", 0.85],
  ["COCCN1CCCC(c2ccc(Nc3ncc(Cl)c(NCc4cccc5c4C(C)(C)C(=O)N5)n3)cc2)C1 (racemic)", 0.30],
  ["CN1CCC(n2cc(Nc3ncc(Cl)c(NCc4cccc5c4C(C)(C)C(=O)N5)n3)cn2)CC1", 0.60],
  ["COc1cc(N2CCN(C(C)C)CC2)ccc1Nc1ncc(C(F)(F)F)c(NCc2cccc3c2C(C)(C)C(=O)N3C)n1", 0.30],
  ["COc1cc(N2CCN(CC3CC3)[C@H](C)C2)ccc1Nc1ncc(C(F)(F)F)c(NCc2cccc3c2C(C)(C)C(=O)N3)n1", -0.48]
]}
